Property: IC50; scope: individual molecules
- Test system: U937
- protocol-notes: Cell inhibition assay (WST-1 cell viability), U937
- Type: cell-based
- particulars: Homo sapiens, U-937, U937 cells, 72-96 h, read-out: Inhibition cell proliferation U937

Guide cases for IC50, answers given:
{"molecule": "COc1cc(NCc2ccc3nc(N)nc(N)c3c2C)cc(OC)c1OCC(=O)N[C@@H](CC(C)C)C(=O)OC1CCCC1 [Example 5]", "measured-on": "U937", "data-value": "< 100 nM"}
{"molecule": "Cc1c(CNc2ccc(CN[C@@H](CC(C)C)C(=O)OC3CCCC3)cc2)cnc2nc(N)nc(N)c12 [Example 3]", "measured-on": "U937", "data-value": "< 100 nM"}
{"molecule": "Cc1c(CNc2ccc(C(=O)N[C@@H](CC(C)C)C(=O)OC3CCCC3)cc2)cnc2nc(N)nc(N)c12 [Example 1]", "measured-on": "U937", "data-value": "< 100 nM"}
{"molecule": "COc1cc(NCc2ccc3nc(N)nc(N)c3c2C)cc(OC)c1OCC(=O)N[C@@H](CC(C)C)C(=O)OC(C)(C)C [Example 6]", "measured-on": "U937", "data-value": "< 100 nM"}
{"molecule": "COc1cc(NCc2ccc3nc(N)nc(N)c3c2C)cc(OC)c1OCCN[C@@H](CC(C)C)C(=O)OC1CCCC1 [Example 8]", "measured-on": "U937", "data-value": "< 100 nM"}

Bench note: what IC50 did COc1cc(NCc2ccc3nc(N)nc(N)c3c2C)cc(OC)c1OCCN[C@@H](CC(C)C)C(=O)OC(C)(C)C [Example 10] show?
100 to 1000 nM
